Recorded measurements of Ki, one per entry
target.or.test.system: Norepinephrine transporter (Rattus norvegicus, UniProt Q9WTR4)
Sequence (Q9WTR4 whole entry): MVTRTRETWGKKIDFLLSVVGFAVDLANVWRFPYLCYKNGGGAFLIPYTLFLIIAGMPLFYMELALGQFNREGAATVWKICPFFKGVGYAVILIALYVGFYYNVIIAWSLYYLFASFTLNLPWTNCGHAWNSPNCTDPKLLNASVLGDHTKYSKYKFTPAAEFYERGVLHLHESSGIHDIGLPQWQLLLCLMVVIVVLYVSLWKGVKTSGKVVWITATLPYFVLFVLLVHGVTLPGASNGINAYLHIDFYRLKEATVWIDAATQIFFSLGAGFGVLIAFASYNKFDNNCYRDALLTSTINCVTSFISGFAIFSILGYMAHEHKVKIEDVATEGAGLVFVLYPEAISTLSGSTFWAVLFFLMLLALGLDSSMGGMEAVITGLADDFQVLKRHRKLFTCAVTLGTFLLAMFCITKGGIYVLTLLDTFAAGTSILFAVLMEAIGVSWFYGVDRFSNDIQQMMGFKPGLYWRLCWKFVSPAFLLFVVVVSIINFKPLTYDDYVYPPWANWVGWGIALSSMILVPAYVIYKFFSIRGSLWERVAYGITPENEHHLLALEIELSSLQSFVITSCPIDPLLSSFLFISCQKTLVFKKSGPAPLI
assay.info: Displacement of [3H]-nisoxetine from NET in Sprague-Dawley rat brain prefrontal cortex incubated for 180 mins by radioligand binding assay
Type: tissue-based
# unit: nM | format: bare number

compound	Ki (nM)
CNCCCC1(c2ccccc2)OC(C)(C)c2ccccc21 (centres undefined)	4.5

Enquiry: API: value(readout=Ki, system=Norepinephrine transporter (Rattus norvegicus, UniProt Q9WTR4)) for record CCN(CC)c1ccc2c(-c3ccc(S(=O)(=O)NCCCCCC(=O)NCc4cccc(C(CCNC)Oc5ccccc5OC)c4)cc3S(=O)(=O)[O-])c3ccc(=[N+](CC)CC)cc-3oc2c1 (centres undefined)
Return: 43

Enquiry: Record lookup: for Norepinephrine transporter (Rattus norvegicus, UniProt Q9WTR4), what Ki belongs to CCN(CC)c1ccc2c(-c3ccc(S(=O)(=O)NCCCCCC(=O)NCCN4C5CCC4[C@@H](C(=O)OC)[C@@H](c4ccc(Cl)c(Cl)c4)C5)cc3S(=O)(=O)[O-])c3ccc(=[N+](CC)CC)cc-3oc2c1 (some centres undefined) ?
Return: 79
